# tested_on: Phosphatidylinositol 4,5-bisphosphate 3-kinase catalytic subunit delta isoform (Homo sapiens) (UniProt O00329)
# Sequence (whole entry): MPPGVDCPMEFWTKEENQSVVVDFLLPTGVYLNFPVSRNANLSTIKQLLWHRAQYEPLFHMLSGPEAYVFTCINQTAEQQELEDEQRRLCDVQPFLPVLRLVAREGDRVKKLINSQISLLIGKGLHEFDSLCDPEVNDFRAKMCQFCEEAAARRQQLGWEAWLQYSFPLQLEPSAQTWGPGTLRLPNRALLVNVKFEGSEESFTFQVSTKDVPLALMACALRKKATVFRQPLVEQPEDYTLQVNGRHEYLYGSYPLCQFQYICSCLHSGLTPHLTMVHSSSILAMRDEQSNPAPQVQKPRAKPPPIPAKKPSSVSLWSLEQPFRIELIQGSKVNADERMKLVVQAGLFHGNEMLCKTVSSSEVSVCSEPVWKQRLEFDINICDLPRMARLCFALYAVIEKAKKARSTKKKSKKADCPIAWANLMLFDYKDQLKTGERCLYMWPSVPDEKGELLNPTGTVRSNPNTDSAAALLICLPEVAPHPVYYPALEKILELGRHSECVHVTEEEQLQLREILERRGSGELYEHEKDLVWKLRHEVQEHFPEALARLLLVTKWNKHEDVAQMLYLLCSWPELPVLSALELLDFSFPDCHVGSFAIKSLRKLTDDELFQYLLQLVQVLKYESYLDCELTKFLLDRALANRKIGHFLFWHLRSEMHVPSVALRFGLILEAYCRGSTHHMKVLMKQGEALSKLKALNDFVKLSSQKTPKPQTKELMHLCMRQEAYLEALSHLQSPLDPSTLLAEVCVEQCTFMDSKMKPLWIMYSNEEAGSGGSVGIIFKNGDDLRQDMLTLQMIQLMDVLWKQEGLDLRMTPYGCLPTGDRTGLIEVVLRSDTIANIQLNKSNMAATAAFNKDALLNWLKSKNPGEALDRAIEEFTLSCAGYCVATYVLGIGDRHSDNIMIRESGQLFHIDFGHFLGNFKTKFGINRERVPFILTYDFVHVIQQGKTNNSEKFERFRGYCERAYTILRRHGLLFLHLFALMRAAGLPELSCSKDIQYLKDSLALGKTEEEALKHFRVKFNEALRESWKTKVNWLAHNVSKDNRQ
# assay_setup: at 0.1 µM;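 also: values are mean percent inhibition of PI3K-delta, part of the GSK PKIS screen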
inhibition reference

smiles_structure	inhibition, %
COc1ccc(-c2cc3c(N)ncnc3o2)cc1	-0.57
CCn1cc(-c2ccnc3[nH]ccc23)c(-c2cccc(NC(=O)Nc3ccc(OCc4ccccc4)cc3)c2)n1	-0.3
COC(=O)c1sc(-n2cnc3cc(OC)c(OC)cc32)cc1OCc1ccccc1C(F)(F)F	2.55
CCn1c(-c2nonc2N)nc2c(C#CC(C)(C)O)nc(OC[C@H](N)c3ccccc3)cc21	0.44
COC(=O)Nc1nc2ccc(S(=O)(=O)c3ccc(NC(=O)Nc4cc(C(F)(F)F)ccc4F)cc3)cc2[nH]1	2.19
Nc1ncc(-c2cccc(S(N)(=O)=O)c2)c2scc(-c3ccc(F)c(Cl)c3)c12	1.02
CN(C)CCOc1ccc(-c2nc(-c3ccncc3)c(-c3ccc4c(c3)CC/C4=N\O)[nH]2)cc1	1.62
COc1cc2c(cc1Nc1nc(Nc3ccsc3C(N)=O)c3cc[nH]c3n1)N(C(=O)CN(C)C)CCC2(C)C	2.82
NS(=O)(=O)c1ccc(N/N=C2\C(=O)Nc3ccc4ncccc4c32)cc1	1.9
CCCN1CCC(c2ccc(Nc3nc(Nc4cc(F)ccc4C(N)=O)c4cc[nH]c4n3)c(OC)c2)CC1	2.18
COc1ccc(-c2cc(-c3c[nH]nc3-c3ccccn3)ccn2)cc1	-0.37
COc1ccc2[nH]c3c4[nH]c5ccc(OC)cc5c4c4c(c3c2c1)C(=O)NC4=O	4.48
NS(=O)(=O)c1ccc(Nc2ncc(-c3ccccc3)o2)cc1	0.62
CCn1c(-c2nonc2N)nc2c(C#CC(C)(C)O)ncc(OC3CCNCC3)c21	-0.02
CCNC(=O)O[C@H]1CN[C@H](C#Cc2cc3ncnc(Nc4ccc(OCc5cccc(F)c5)c(Cl)c4)c3s2)C1	2.96
Cc1cccc(Nc2ncc(-c3ccccc3)o2)c1	0.73
COc1cccc(-n2ncc3c(N/N=C/c4ccc(F)cc4)ncnc32)c1	0.55
c1ccc(-c2nc3n(c2-c2ccc4c(c2)OCO4)CCC3)nc1	6.67
N#Cc1c(NC(=O)CN2CCOCC2)sc2c1CCCC2	0.47
CCN1CCC(CC(=O)Nc2n[nH]c3nnc(-c4cccc(F)c4F)cc23)CC1	2.16
COc1cc(N2CCN(C(C)C)CC2)ccc1Nc1nc(Nc2ccc(F)cc2C(N)=O)c2cc[nH]c2n1	-1.34

Where do the numbers come from? From ChEMBL document CHEMBL1961873.
